Assign Number of cells to each entry below.
# Tested on: B16 cells
# assay-summary: Melanin-production test of B16 cells
# Type: cell-based, mouse
# test-conditions: evaluated concentration 80 µM; culture for 5 days
# Protocol: Experimental Example: Melanin-production test of B16 cells B16 cells (4 x 10⁴) derived from mouse melanoma are suspended in Eagle MBM medium containing bovine fetal serum (10 ml) for culture in the presence of 5% CO₂ at 37°C in 25-cm³ Rou bottle. […] The cells recovered on the filter were measured of their reflection luminous intensity (degree of darkness) at 500 nm with a densitometer.

**Q:** Tell us which Number of cells value is on record for CCCCCC/C=C\CCCCCCCC(=O)OCC(O)CO (stereo not shown)
**A:** 2.2 × 10^4 cells

**Q:** Tell us which Number of cells value is on record for "CC=CCCCCC(=O)O"
**A:** 2.6 × 10^4 cells

**Q:** Tell us which Number of cells value is on record for "CCCCCCC=CCCCCCCCCC(=O)OC(CO)CO"
**A:** 2.2 × 10^4 cells

**Q:** Tell us which Number of cells value is on record for "CCCCCC/C=C\CCCCCCCC(=O)OCC(O)COC(=O)CCCCCCC/C=C\CCCCCC"
**A:** 2.1 × 10^4 cells

**Q:** Tell us which Number of cells value is on record for "CCCCC=CCC=CCCCCCC(=O)O"
**A:** 2.6 × 10^4 cells

**Q:** Tell us which Number of cells value is on record for CCCCC=CCCCCCCCCC(=O)OCC(O)CO (stereo not shown)
**A:** 2.4 × 10^4 cells

**Q:** Tell us which Number of cells value is on record for CCCCCCC=CCCCCCCCCC(=O)OCC(O)COC(=O)CCCCCCCCC=CCCCCCC (stereo not shown)
**A:** 2.1 × 10^4 cells

**Q:** Tell us which Number of cells value is on record for CCCCC=CCCCCCCCCC(=O)OCC(O)COC(=O)CCCCCCCCC=CCCCC (stereo not shown)
**A:** 2.1 × 10^4 cells

**Q:** Tell us which Number of cells value is on record for "CCCC/C=C\CCCCCCCC(=O)OCC(COC(=O)CCCCCCC/C=C\CCCC)OC(=O)CCCCCCC/C=C\CCCC"
**A:** 2.5 × 10^4 cells

**Q:** Tell us which Number of cells value is on record for "CCCCCCC=CCCCCCCCCC(=O)O"
**A:** 2.6 × 10^4 cells

**Q:** Tell us which Number of cells value is on record for "CCCCCC/C=C\CCCCCCCC(=O)OC[C@H](COP(=O)([O-])OCC[N+](C)(C)C)OC(=O)CCCCCCC/C=C\CCCCCC"
**A:** 2.8 × 10^4 cells

**Q:** Tell us which Number of cells value is on record for CCC=CCCCCCCCC(=O)OCC(CO)OC(=O)CCCCCCCC=CCC (stereo not shown)
**A:** 2.4 × 10^4 cells

**Q:** Tell us which Number of cells value is on record for "CC=CC(=O)O"
**A:** 2.7 × 10^4 cells

**Q:** Tell us which Number of cells value is on record for "CCCCCC/C=C\CCCCCCCC(=O)OC"
**A:** 2.6 × 10^4 cells

**Q:** Tell us which Number of cells value is on record for "CCCC=CCCCCC(=O)O"
**A:** 2.6 × 10^4 cells

**Q:** Tell us which Number of cells value is on record for "CCC=CCCCCCCCCC(=O)O"
**A:** 2.7 × 10^4 cells

**Q:** Tell us which Number of cells value is on record for "CCCC=CCC=CCC=CCCCCC(=O)O"
**A:** 2.5 × 10^4 cells

**Q:** Tell us which Number of cells value is on record for "CCC=CCC(=O)OC(CO)CO"
**A:** 2.4 × 10^4 cells

**Q:** Tell us which Number of cells value is on record for "CCC=CCC=CCCCCC(=O)O"
**A:** 2.5 × 10^4 cells

FYI, the data here is from patent EP0355842A2.
